// data source = the supplement of paper PMC7125110

B1: glmS ribozyme (parent)
chain: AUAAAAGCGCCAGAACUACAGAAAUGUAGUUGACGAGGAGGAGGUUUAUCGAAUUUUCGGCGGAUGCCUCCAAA

Variants of: B1
Test: self-cleavage kobs at 160 uM GlcN6P; higher = faster cleavage; RNA array
Settings: with glucosamine-6-phosphate
Variants at the floor of the assay were thinned out.
experimental endpoint: self-cleavage kobs at 160 uM GlcN6P (s⁻¹)
Answer with a number only, understood to be in s⁻¹.

In [3]: df
Out[3]:
                             residue_string                experimental_endpoint  quantitative_result
0  AUAAAAGCGCCAGAACUACAGAAAUGUAGUUGACGAGGAGGAGGUUUAUCGAUUUUUCGGCGGAUGCUUCCAAA [A53U C68U]  self-cleavage kobs at 160 uM GlcN6P             0.000357
1  AUAAAAGCGCCAGAACUACAGAAAUGUAGUUGACGAGGUGGAGGUUUAUCGAAUAUUCGGCGGAUGCCUCCAAA [A39U U55A]  self-cleavage kobs at 160 uM GlcN6P              0.00146
2  AUAAAAGCGCCAGAACUACAGAAAUGUAGUUGACGAGGAUGAGGUUUAUCGAAUUUUCGGCGGAUGCCUCGAAA [G40U C71G]  self-cleavage kobs at 160 uM GlcN6P             0.000498

Suppose we examine the variant AUAAAAGCGCCAGAACUACAGAAAUGUAGUGGACGAGGAGGAGGUUUAUCGAAUGUUCGGCGGAUGCCUCCAAA [U31G U55G] ; what self-cleavage kobs at 160 uM GlcN6P value has been reported?
0.000859

Suppose we examine the variant AUAAAAGCGCCAGAACUACAGAAAUGUAGUUGACGAGGAGGAGGUAUAUCGAAUGUUCGGCGGAUGCCUCCAAA [U46A U55G] ; what self-cleavage kobs at 160 uM GlcN6P value has been reported?
0.000169

Suppose we examine the variant AUAAAAGCGCCAGGGCUACAGAAAUGUAGUUGACGAGGAGGAGGUUUAUCGAAUUUUCGGCGGAUGCCUCCAAA [A14G A15G] ; what self-cleavage kobs at 160 uM GlcN6P value has been reported?
0.0049

Suppose we examine the variant AUAAAAGCGCCAGAACUACAGAAAUGUAGUUGACGAGGAGGAGGUUUAGCGAAUUUUCGGCGGAUGCCUUCAAA [U49G C70U] ; what self-cleavage kobs at 160 uM GlcN6P value has been reported?
7.37e-05

Suppose we examine the variant AUAAAAGCGCCAGAACUACAGAAAUGUAAUUGACGAGGAGGAGGUUUAUCGAAUUUUCGGCGGAUGCCUGCAAA [G29A C70G] ; what self-cleavage kobs at 160 uM GlcN6P value has been reported?
5.22e-05

Suppose we examine the variant AUAAAAGCGCCAGAACUACAGAAAUGUAGUUGACGAGGCGGAGGUUUAUCGAAUUUUCGGCGGAUGCUUCCAAA [A39C C68U] ; what self-cleavage kobs at 160 uM GlcN6P value has been reported?
6.25e-05
